- Test system: K-562 leukemia
- Assay details: NCI-60 one-dose screen, 48 h
- Study conditions: 10 µM unless noted
About 83,000 compounds went through this panel and 20% of them were active in at least one assay; those are over-represented in the sample as a whole. Calls of active or inactive are those of the source. How the source made its calls: active means growth percent below 10; inactive means the rest.
Labels: Yes (active), No (inactive)

1. CCn1cnc(C[C@H](NC(=O)[C@H](CCCCNC(=O)Nc2cc(C(F)(F)F)cc(C(F)(F)F)c2)NC(=O)Nc2cc(C(F)(F)F)cc(C(F)(F)F)c2)C(=O)OC)c1	Yes
2. CC(NC(=O)Oc1cccc2ccccc12)c1ccccc1 (stereo not drawn)	No
3. [N-]=[N+]=NCc1cccc(/C(O)=C/C(=O)C(=O)O)c1	No
4. CC(C)Sc1nc(Cl)c(C#N)c(-c2ccc(F)cc2)n1	No
5. O=C1/C(=C/c2ccc(F)cc2)Cc2ccccc21	No
6. O=C(C(=O)N1CCOCC1)c1cn(CCCn2cc(C(=O)C(=O)N3CCOCC3)c3ccccc32)c2ccccc12	No
7. N#Cc1c(NC(=O)c2ccco2)[n+]([O-])c2cc(Cl)c(Cl)cc2[n+]1[O-]	No
8. COc1cc(C2CC(C3C(=O)N(C)C(=O)N(C)C3=O)=NN2C=O)cc(OC)c1OC (stereo not drawn)	No
9. O=C(CN1CCN(c2ccc(Cl)cc2)CC1)N1CCN(c2nnc(-c3ccccc3)c(-c3ccccc3)n2)CC1	Yes
10. NC(=NCCCCCCN=C(N)/N=C(\N)Nc1ccc(Cl)cc1)/N=C(\N)Nc1ccc(Cl)cc1	Yes
11. COc1cc(/C=C/C(=O)C(C(=O)/C=C/c2ccc(OC(=O)CCNC34CC5CC(CC(C5)C3)C4)c(OC)c2)C(=O)CCNC23CC4CC(CC(C4)C2)C3)ccc1OC(=O)CCNC12CC3CC(CC(C3)C1)C2 (stereo not drawn)	Yes
12. Fc1ccc(-c2nn3c(-c4cc(C(F)(F)F)cc(C(F)(F)F)c4)nnc3s2)cc1	No
13. CCN(CC)CCNCC(=O)Oc1ccc(/C=C/C(=O)CC(=O)/C=C/c2ccc(OC(=O)CNCCN(CC)CC)c(OC)c2)cc1OC	Yes
14. CCCCCc1c(C)[nH]c(/C=C2\N=C(c3ccc[nH]3)C=C2OCc2ccccc2)c1C	Yes
15. O=C(COc1ccc(/C=C2\Oc3ccc4ccccc4c3C2=O)cc1)c1ccc(Cl)cc1	No
16. CCOc1nc(-c2ccco2)n2nc(-c3ccco3)cc2n1	No
17. Nc1nc(SCc2cccnc2)c2ncn(C3OC(CO)C(O)C3O)c2n1 (stereo not drawn)	No
18. COc1cccc(-c2nc(-c3ccc(N)cc3)co2)c1	No
